Test system: DU-145 prostate
Assay Name: NCI-60 one-dose screen, 48 h
Condition Summary: 10 µM unless noted
About 83,000 compounds went through this panel and 20% of them were active in at least one assay; those are over-represented in the sample as a whole. Calls of active or inactive are those of the source. How the source made its calls: active means growth percent below 10; inactive means the rest.
Choose the fitting class; nothing outside label 1 (active), label 0 (inactive) is accepted.

// below: answered compounds
COc1ccc(CCN2CCCn3c2nc2ccccc2c3=O)cc1
label 0
C=C1CC[C@@H]2[C@](C)(COC(C)=O)[C@H](OC(C)=O)CC[C@@]2(C)[C@@H]1CC(Nc1ccc(S(=O)(=O)Nc2nc(C)cc(C)n2)cc1)C1=CCOC1=O (some centres undefined)
label 0
CC/C=C\C[C@H](O)C/C=C1/C(=O)C=C[C@@H]1C/C=C\CCCC(=O)NC
label 0
CC1CN(Cc2ccco2)C(=S)N(c2ccccc2)C1=O (centres undefined)
label 0
Cn1c(=O)c2[nH]c(C(O)C(O)C(O)C(O)CO)nc2n(C)c1=O (centres undefined)
label 0

Recorded call for COc1cc(C2CC(=O)c3c(C)nn(-c4nc5ccccc5[nH]4)c3C2)cc(OC)c1OC (centres undefined) ?
label 0

Recorded call for `CC(=O)C1=C(O)C=C2Oc3c(C(=O)/C=C/c4ccccc4)c(O)c(C)c(O)c3[C@]2(C)C1=O` ?
label 0

Recorded call for `Cc1cc(OCc2ccc(C(F)(F)F)cc2)c2c(c1)C(=O)C=C(NCCN1CCCC1)C2=O` ?
label 0

Recorded call for CC1=C(C)C(=O)OC([C@](C)(O)[C@]2(O)CC[C@@]3(O)[C@@H]4C[C@H]5O[C@]56CC=CC(=O)[C@]6(C)[C@H]4CC[C@]23COC(=O)c2ccc(C)o2)C1 (some centres undefined) ?
label 1

Recorded call for `O=C(CN1CCN(c2cc3c(cc2F)c(=O)c(C(=O)O)cn3C2CC2)CC1)Nc1cc(=O)[nH]c(=O)[nH]1` ?
label 0

Recorded call for `Cc1ccc(/C=C2\Oc3cc(OCC(=O)c4ccc(Cl)cc4)ccc3C2=O)cc1` ?
label 0

Recorded call for `CCN(CC)CCCCNc1ccc(NCCCCN(CC)CC)c2c1C(=O)c1ccccc1C2=O` ?
label 0

Recorded call for `Nc1ccc(N2CCOCC2)cc1` ?
label 0
